Data origin, for the record: the supplement of paper PMC7877785

Assay: self-splicing fitness, log relative to wild type (ln ratio); higher = more splicing; Tetrahymena group I intron in knt gene, E. coli kanamycin selection, DiMSum; sequences stand for … in CUCUCU…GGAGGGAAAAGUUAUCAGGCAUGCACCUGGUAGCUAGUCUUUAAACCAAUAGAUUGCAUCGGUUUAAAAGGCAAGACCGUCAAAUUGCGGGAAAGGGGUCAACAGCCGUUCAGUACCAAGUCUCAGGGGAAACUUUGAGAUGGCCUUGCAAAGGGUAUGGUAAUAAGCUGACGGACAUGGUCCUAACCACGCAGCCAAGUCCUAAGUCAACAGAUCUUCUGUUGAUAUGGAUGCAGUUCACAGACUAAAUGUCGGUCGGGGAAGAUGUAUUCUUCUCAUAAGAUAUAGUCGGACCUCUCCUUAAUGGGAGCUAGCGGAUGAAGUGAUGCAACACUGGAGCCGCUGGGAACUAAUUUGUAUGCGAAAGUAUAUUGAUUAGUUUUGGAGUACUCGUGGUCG;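 further: selection with 25 µg/mL kanamycin versus none on LB agar overnight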
Details: 37 °C
measurementLabel: self-splicing fitness (ln)

{"columns": ["residueString", "measurementLabel", "quantitativeReadout"],
 "data": [
  ["AGUUAGCAAUAUUACGCUUU", "self-splicing fitness (ln)", -1.09],
  ["UGCAAGCAAUAUUACGUUCC", "self-splicing fitness (ln)", -1.43],
  ["UACCAGCAAUAUUACGACCC", "self-splicing fitness (ln)", -1.02],
  ["GUUCAGCAAUAUUACGCCUU", "self-splicing fitness (ln)", 0.046],
  ["GCAUAGCAAUAUUACGUCUC", "self-splicing fitness (ln)", -0.552],
  ["AGCGAGCAAUAUUACGUCGA", "self-splicing fitness (ln)", -2.3],
  ["ACCUAGCAAUAUUACGGUUG", "self-splicing fitness (ln)", -2.71]
]}

====

Listed below: self-splicing fitness (ln) values for each entry.
Experiment: self-splicing fitness, log relative to wild type (ln ratio); higher = more splicing; Tetrahymena group I intron in knt gene, E. coli kanamycin selection, DiMSum; sequences stand for … in CUCUCU…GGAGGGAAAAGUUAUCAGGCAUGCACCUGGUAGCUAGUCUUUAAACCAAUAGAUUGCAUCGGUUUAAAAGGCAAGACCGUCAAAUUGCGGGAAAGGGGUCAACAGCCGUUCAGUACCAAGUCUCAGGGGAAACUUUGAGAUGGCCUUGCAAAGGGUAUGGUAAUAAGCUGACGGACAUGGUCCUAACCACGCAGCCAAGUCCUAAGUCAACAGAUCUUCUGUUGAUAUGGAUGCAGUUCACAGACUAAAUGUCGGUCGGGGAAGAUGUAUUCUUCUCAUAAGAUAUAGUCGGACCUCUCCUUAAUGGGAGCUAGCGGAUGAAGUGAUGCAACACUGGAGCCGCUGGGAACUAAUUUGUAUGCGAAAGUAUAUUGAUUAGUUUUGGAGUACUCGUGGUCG
Details: 30 °C

{"columns": ["residueString", "self-splicing fitness (ln)"],
 "data": [
  ["AGAAAGCAAUAUUACGUCAA", -1.61],
  ["UUACAGCAAUAUUACGCAUA", -1.34],
  ["ACAUAGCAAUAUUACGAUGC", -3.16],
  ["UACGAGCAAUAUUACGUGAU", -4.17],
  ["GGUUAGCAAUAUUACGUCAG", -3.16],
  ["GAGUAGCAAUAUUACGGGAA", -2.33],
  ["AGCAAGCAAUAUUACGAUUC", -2.18],
  ["AAAUAGCAAUAUUACGCCAA", -2.54],
  ["CAGCAGCAAUAUUACGGGUA", -3.24],
  ["AUCUAGCAAUAUUACGGGCA", -1.25],
  ["UGGGAGCAAUAUUACGUCGG", -0.491],
  ["GUUUAGCAAUAUUACGUAGU", -1.84],
  ["AAGAAGCAAUAUUACGGGUC", -4.04],
  ["GACCAGCAAUAUUACGAUGA", -0.717],
  ["AUUGAGCAAUAUUACGAUCA", -1.91],
  ["CAUGAGCAAUAUUACGUCGG", -2.94],
  ["CUUAAGCAAUAUUACGGCAU", -3.68],
  ["GCCUAGCAAUAUUACGGAGC", -2.44],
  ["UCAUAGCAAUAUUACGAACG", -0.967],
  ["GCCGAGCAAUAUUACGGAAG", -2.65],
  ["GGACAGCAAUAUUACGUUAC", -2.86],
  ["UUGGAGCAAUAUUACGCAGC", -3.49],
  ["UAAUAGCAAUAUUACGUUAC", -4.32],
  ["GCAAAGCAAUAUUACGACCA", -0.267],
  ["UUACAGCAAUAUUACGGGCG", -0.655],
  ["GAACAGCAAUAUUACGGUCC", -4.14],
  ["ACUGAGCAAUAUUACGCCUC", -2.32],
  ["GAAUAGCAAUAUUACGGUCU", -0.677],
  ["CCAAAGCAAUAUUACGGGGG", -3.14],
  ["UGGUAGCAAUAUUACGGUAG", -2.53],
  ["AUCUAGCAAUAUUACGGCGG", -1.12]
]}
